What self-splicing fitness (ln) was measured for each of the following?
Assay: self-splicing fitness, log relative to wild type (ln ratio); higher = more splicing; Tetrahymena group I intron in knt gene, E. coli kanamycin selection, DiMSum; sequences stand for … in CUCUCU…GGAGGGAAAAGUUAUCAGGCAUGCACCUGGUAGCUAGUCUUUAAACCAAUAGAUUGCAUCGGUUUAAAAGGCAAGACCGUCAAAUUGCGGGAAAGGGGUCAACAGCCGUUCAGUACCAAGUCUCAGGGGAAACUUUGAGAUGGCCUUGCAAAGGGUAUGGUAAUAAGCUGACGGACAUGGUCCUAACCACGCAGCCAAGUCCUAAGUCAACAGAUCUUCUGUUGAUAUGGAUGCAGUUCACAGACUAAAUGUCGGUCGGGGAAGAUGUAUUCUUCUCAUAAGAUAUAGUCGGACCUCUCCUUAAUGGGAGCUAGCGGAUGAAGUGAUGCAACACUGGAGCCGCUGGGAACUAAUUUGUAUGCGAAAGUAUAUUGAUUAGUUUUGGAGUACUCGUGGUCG;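 further: selection with 25 µg/mL kanamycin versus none on LB agar overnight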
Conditions: 30 °C
Give bare numbers.

Recorded results for 2 sequences are shown here.
1. GCACAGCAAUAUUACGAGAU :: -1.99
2. GUGGAGCAAUAUUACGCUAG :: -3.24

# map each sequence to its self-splicing fitness (ln)
1. GUAAAGCAAUAUUACGCCUG
2. GUAAAGCAAUAUUACGUGAC
3. CACCAGCAAUAUUACGUUUC

output:
-0.223
-2.09
-4.36

// each listed sequence needs a value for self-splicing fitness (ln)
1. AGUCAGCAAUAUUACGUAGU
2. UCCGAGCAAUAUUACGAAUA
3. GUGGAGCAAUAUUACGGCAC
4. AGGUAGCAAUAUUACGACUA
5. UACGAGCAAUAUUACGACGA
6. ACUAAGCAAUAUUACGCCCC
7. CAGAAGCAAUAUUACGGCGA
8. UCCAAGCAAUAUUACGUACA

output:
[-1.21, -2.95, -1.39, -0.0242, -1.85, -0.566, -1.43, -0.123]

Go through the list and state self-splicing fitness (ln) for each entry.
1. CGGUAGCAAUAUUACGGCUU
2. ACAGAGCAAUAUUACGUCCA
3. GGCGAGCAAUAUUACGGUGU
4. CUCAAGCAAUAUUACGGCAU
5. GCUAAGCAAUAUUACGGUCC
6. GCCUAGCAAUAUUACGCUGU

output:
[-0.935, -2.34, -2.02, -2.66, -1.4, -0.847]
